- measured target: UniProt:P43236
- assay notes: Cathepsin K Assay (hrbCat K)
- Format: biochemical
- assay conditions: Z-Leu-Arg-AMC substrate, pH 5.5, 15 min preincubation; read-out: hrbCat K (IP (nM))
result type: IC50 (nM)
Expressed in nM, but write only the number.

These recorded examples may help you get a feel for the data.
-- ask Could you share which IC50 value was measured for N#CC1(NC(=O)[C@@H]2CCCC[C@H]2c2nc(C3CCOCC3)sc2-c2ccc(N3CCS(=O)(=O)CC3)cc2)CC1 ?
-- reply 3

-- ask Which IC50 reading was recorded for the compound N#CC(NC(=O)[C@@H]1CCCC[C@H]1c1nc(-c2ccc(F)cn2)sc1-c1ccc(N2CCS(=O)(=O)CC2)cc1)C1CCOCC1 (single isomer, unassigned) [Example 186] ?
-- reply 1900

-- ask Query: IC50; subject: C[C@@H](C#N)NC(=O)[C@@H]1C[C@@H](F)CC[C@H]1c1nc(C2CC(F)(F)C2)sc1-c1ccc(N2CCS(=O)(=O)CC2)cc1
-- reply 4.2

-- ask Requested field: IC50. Item: CC(Oc1ccc(-c2nc([C@@H]3CCCC[C@H]3C(=O)NC3(C#N)CC3)c(-c3ccc(N4CCS(=O)(=O)CC4)cc3)s2)cn1)C(F)(F)F (mixture of isomers)
-- reply 1.2

-- ask Recorded IC50 of CC1(C)CN(c2nc([C@@H]3CCCC[C@H]3C(=O)NC3(C#N)CC3)c(-c3ccc(N4CCS(=O)(=O)CC4)cc3)s2)CC(C)(C)O1 , please.
-- reply 48.8

-- ask Fill blank: measured IC50 of the compound Cc1ncc(-c2nc([C@@H]3CCCC[C@H]3C(=O)NC3(C#N)CC3)c(-c3ccc(N4CCS(=O)(=O)CC4)cc3)s2)s1 is ____.
-- reply 2.3

---
-- ask Field request: IC50 | item: Cc1nc([C@@H]2CC[C@H](F)C[C@H]2C(=O)NC2(C#N)CC2)c(-c2ccc(N3CCOCC3)cc2)s1
-- reply 44.1

====

Measured IC50 of individual entries
- measured target: human cathepsin K (UniProt P43236)
- assay notes: Cathepsin K Assay (hrbCat K)
- Format: biochemical
- assay conditions: Z-Leu-Arg-AMC substrate, pH 5.5, 15 min preincubation; read-out: hrbCat K (IP (nM))
Lab book: enter the figure in nM, no units written.

-- ask Reported IC50 for Cc1nc([C@@H]2CC[C@H](F)C[C@H]2C(=O)N[C@@H](C)C#N)c(-c2ccc(N3CCOCC3)cc2)s1 : what is it?
-- reply 45.5

---
-- ask Give the measured IC50 of N#CC1(NC(=O)[C@@H]2CCCC[C@H]2c2nc(-c3ccnc(C(F)(F)F)c3)sc2-c2ccc(N3CCS(=O)(=O)CC3)cc2)CC1 .
-- reply 2.1

-- ask // returns reported IC50 for input N#CC1(NC(=O)[C@@H]2CCC(F)(F)C[C@H]2c2nc(-c3ccc(F)cc3)sc2-c2ccc(N3CCS(=O)(=O)CC3)cc2)CC1
-- reply 3.8

-- ask # IC50 lookup, item N#CC1(NC(=O)[C@@H]2CC3CC3C[C@H]2c2nc(-c3cncc(F)c3)sc2-c2ccc(N3CCS(=O)(=O)CC3)cc2)CC1 (single isomer, unassigned) [Example 111]
-- reply 0.7

-- ask I'd like to know its IC50. The compound in question is CS(=O)(=O)c1ccc(-c2oc(-c3ccccc3)nc2C2CCC(F)(F)CC2C(=O)NCC#N)cc1 (racemic)
-- reply 2.7

-- ask I am curious: what IC50 value has been reported for CN=S1(=O)CCN(c2ccc(-c3sc(-c4cncc(F)c4)nc3[C@@H]3CCCC[C@H]3C(=O)NC3(C#N)CC3)cc2)CC1 ?
-- reply 1.9
